METRIC: melting point

// melting point lookup, key: CC(C)(C)OC(=O)N1CSC[C@H]1C(=O)O
132 to 136 °C

// melting point lookup, key: N#Cc1c(F)cccc1Oc1ccccc1
92 to 96 °C

// melting point lookup, key: CC(C)C1(NC(=O)c2ccccc2)COCOC1=O (racemic)
161 to 162 °C

// melting point lookup, key: CC(C)(C)P(c1ccccc1-c1ccccc1)C(C)(C)C
84 to 87 °C

// melting point lookup, key: OCC1OC(Oc2c[nH]c3ccc(Br)c(Cl)c23)C(O)C(O)C1O (stereo not given)
249 to 251 °C

// melting point lookup, key: Nc1cc(Cl)c([N+](=O)[O-])cc1N
189 to 193 °C

// melting point lookup, key: OCC(F)(F)C(F)(F)CO
85 to 87 °C

// melting point lookup, key: CC1NC(C(=O)O)CS1 (mixture of isomers)
180 to 185 °C

// melting point lookup, key: NC(=NO)c1cc(F)c(F)cc1F
91 to 92 °C

// melting point lookup, key: CC(=O)C12OC1CC1C3CCC4=CC(=O)CCC4(C)C3C(O)CC12C (stereo not given)
206 °C

// melting point lookup, key: CS(=O)(=O)CCO
31 to 33 °C

// melting point lookup, key: O=C(O)c1cccc(F)c1O
147 °C

// melting point lookup, key: BrC/C=C/CBr
53.4 °C

// melting point lookup, key: C[Si](C)(C)CC(=O)O
41 °C

// melting point lookup, key: Cc1ccc(S(=O)(=O)n2cccc2)cc1
101 °C

// melting point lookup, key: CCNCC
-50 °C

// melting point lookup, key: O=C(/C=C/c1ccccc1)NNc1ccccc1
187 °C

// melting point lookup, key: Nc1nsc(-c2ccc(Cl)cc2)n1
201 to 202 °C

// melting point lookup, key: CCC(C)Br (stereo not given)
-112 °C

// melting point lookup, key: CC(Cc1oc2c(c3c(c4ccccc42)O[C@@H]2CC(=O)O[C@H]32)c(=O)c1[Si](C)(C)C)O[Si](C)(C)C(C)(C)C (stereo not given in full)
188 to 190 °C

// melting point lookup, key: CC1CCC(C(C)C)C(OC(=O)/C(=C/c2ccccc2)Cc2ccccc2)C1 (stereo not given)
64 to 65 °C

// melting point lookup, key: COc1ccc(C=Cc2ccccc2)cc1
135 to 138 °C

// melting point lookup, key: CC/C(=N\O)C1=CC2(C)CCC1C2(C)C (stereo not given)
107 °C

// melting point lookup, key: CC(Oc1ccc2ccccc2c1)C(=O)Nc1ccccc1 (stereo not given)
128 °C

// melting point lookup, key: COc1cc2oc(=O)cc(CBr)c2cc1OC
202 °C

// melting point lookup, key: S=c1[nH]ccn1-c1ccc(Cl)cc1
223 to 226 °C

// melting point lookup, key: COc1ccc(-c2ccc(C=O)s2)cc1
118 to 119 °C

// melting point lookup, key: C=C1C(C)CCC2(C)C3=C(C(=O)C4(CC4C)C(O)C3=O)C(OC(C)=O)C(O)C12 (stereo not given)
195 to 196 °C

// melting point lookup, key: CCOC(=O)CC(=O)c1cc(F)c(Cl)nc1Cl
68 to 72 °C

// melting point lookup, key: O=C(O)c1cccc(N2CCCCC2)n1
98 to 101 °C
